Data origin, for the record: PubChem BioAssay (NCI)

# procedure-summary: NCI Yeast Anticancer Drug Screen. Data for the mlh1 rad18 strain (AID 175)
# condition-info: S. cerevisiae mlh1 rad18 strain growth inhibition; at 50.0 µM; stronger effect = higher value
The panel holds about 79,000 compounds, 15% with a hit somewhere; the sample as a whole holds those more often.
Measured growth inhibition by item
readout: growth inhibition (%)

compound: N#CC1(c2ccccc2)CCN(C2(c3ccccc3)CCCCC2)CC1
obs-value: -30.1

compound: CN1CCC2(CC1)COCc1ccccc12
obs-value: 4.8

compound: CC(C)(C)SCC(NC(=O)OCc1ccccc1)C(=O)O (centres undefined)
obs-value: 7

compound: CCC1(CCOc2ccccc2)C(=O)NC(=O)NC1=O
obs-value: -1.85

compound: Cc1ccc(-n2c(=S)[nH]c3ccccc3c2=O)cc1
obs-value: -20.9

compound: C[C@]12CC[C@H](O)C=C1CC[C@@H]1[C@@H]2CC[C@]2(C)C(c3ccc(=O)oc3)CC[C@]12O (some centres undefined)
obs-value: 8.75

compound: C1=CC2C=CC(C=C1)[PH+]2c1ccccc1.C1=CC2C=CC(C=C1)[PH+]2c1ccccc1.[C-]#[O+].[C-]#[O+].[C-]#[O+].[Fe] (centres undefined)
obs-value: -4.85

compound: CCOC(=O)C1C(C=C(C)C)C1(C)C (centres undefined)
obs-value: -3.95

compound: O=C(Nc1ccc(Cl)cc1C(=O)c1ccccc1)c1ccc([N+](=O)[O-])cc1
obs-value: 12.8

compound: COc1cc(O)c([N+](=O)[O-])cc1[N+](=O)[O-]
obs-value: 5.05

compound: C[N+]1(C)C2CC(O)CC1C1OC12 (centres undefined)
obs-value: 4.45

compound: CCNC1CCCCC1
obs-value: 20.1

compound: CCC1(CC)C(=O)NC(=NCCCC(N)C(=O)O)NC1=O (centres undefined)
obs-value: 7.4

compound: O=C1CCCN1CC#CCN1CCCC1
obs-value: 6.2

compound: CN(C)c1ccccc1
obs-value: 2.65

compound: O=[N+]([O-])c1ccc2c(c1)[O][Sn]([I])([I])[O]2
obs-value: -3.9

compound: N#CN
obs-value: -5.8

compound: C[C@]12CC[C@H]3[C@@H](CCC4=C(Br)C(=O)CC[C@@H]43)[C@@H]1CC[C@@H]2O
obs-value: 19.1

compound: Oc1cccc(-c2ccccc2)c1
obs-value: 21.2

compound: CC(=O)[O-].CC(=O)[O-].O=C(N/N=C/c1cc(Cl)cc(Cl)c1O)c1ccncc1.[Ni+2]
obs-value: 16.9

compound: CCC(=O)c1ccc(OC)c(OC)c1
obs-value: 1.75

compound: O=C(COc1ccc(Cl)cc1)Nc1ccc(Cl)cc1C(=O)c1ccccc1
obs-value: -18.4

compound: CN1CCC(O)(c2ccccc2)C(O)C1 (centres undefined)
obs-value: 39.2

compound: C=CCNCC(O)c1ccccc1 (centres undefined)
obs-value: 4.6

compound: Cc1ccc(C(=O)Nc2ccc(CP(=O)(O)O)cc2)cc1NC(=O)Nc1cc(C(=O)Nc2ccc(CP(=O)(O)O)cc2)ccc1C
obs-value: 7.45

compound: Cn1nnc(-c2nnn(C)n2)n1
obs-value: -19.6

compound: CS(=O)(=O)NC(=NCCOS(C)(=O)=O)N[N+](=O)[O-]
obs-value: 11.8

compound: NC(=O)NNc1ccc([N+](=O)[O-])cc1[N+](=O)[O-]
obs-value: 14.8

compound: CCOP(=O)(OCC)C(C#N)Cc1ccccc1OC (centres undefined)
obs-value: 12.7

compound: O=C(OC12CCN(CC1)CC2)c1ccccc1
obs-value: 0.5

compound: c1cc(C[N+]23CN4CN(CN(C4)C2)C3)cs1
obs-value: -13.7

compound: CC(=O)OC1CCC2(C)C(CC(=O)C3C2CCC2(C)C(OC(C)=O)CCC32)C1 (centres undefined)
obs-value: 2.15

compound: c1cc[c]([Hg][S]c2nc3ccccc3s2)cc1
obs-value: -5.1

compound: Clc1cc[c]([Sb]2([c]3ccc(Cl)cc3)([c]3ccc(Cl)cc3)[O]C(C(Cl)(Cl)Cl)[O]2)cc1 (centres undefined)
obs-value: 97.8

----------
# procedure-summary: NCI Yeast Anticancer Drug Screen. Data for the cln2 rad14 strain (AID 165);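 note: 0% = growth equal to vehicle treated cultures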
# condition-info: S. cerevisiae cln2 rad14 strain, at 50.0 µM
The panel holds about 79,000 compounds, 15% with a hit somewhere; the sample as a whole holds those more often. Active and inactive are the calls of the source. No stated cut-off is given here; in the data, active means growth inhibition above about 70%; inactive means the rest.
Possible outcomes: 1 (yes) (active), 0 (no) (inactive)

compound: COc1cccc(/C=N/[N-]C(=O)c2ccncc2)c1[O-].[Mn+2].[OH3+]
label: 0 (no)
//
compound: O=S(=O)(O)O.[In]
label: 0 (no)
//
compound: Nc1cc(Cl)ccc1Cl
label: 0 (no)
//
compound: COC1C(OC(=O)c2ccc(C)[nH]2)C(O)C(Oc2ccc3c(O)c(NC(=O)c4ccc(O)c(CC=C(C)C)c4)c(=O)oc3c2Cl)OC1(C)C (centres undefined)
label: 0 (no)
//
compound: c1ccc(N=Nc2ccccc2)cc1
label: 0 (no)
//
compound: CC(=O)c1cn(Cc2ccccc2)c2ccccc12
label: 0 (no)
//
compound: CN1CN(c2ccccc2)C2(CCN(CCC3COc4ccccc4O3)CC2)C1=O (centres undefined)
label: 0 (no)
//
compound: CCC(=O)N/N=C(\N)N[N+](=O)[O-]
label: 0 (no)
//
compound: COC(=O)C(Cl)Cl
label: 0 (no)
//
compound: CC(C)OP(=O)(OC(C)C)/C(C#N)=C/c1ccco1
label: 0 (no)
//
compound: CCN(CC)CCn1c(=O)c2ccccc2n(CCN(CC)CC)c1=O
label: 0 (no)
//
compound: CC(=O)[O][Hg][c]1cc[c]([Hg])s1
label: 1 (yes)
//
compound: CC(Cl)CN1CCCCC1 (centres undefined) (tested in a mixture with another compound)
label: 0 (no)
//
compound: C/C(=N\N=C(N)N)C(CN(C)C)C(c1ccccc1)c1c(O)c2ccccc2oc1=O (centres undefined)
label: 0 (no)
//
compound: CCC1(/C=C/C(C)C)C(=O)NC(=S)NC1=O
label: 0 (no)
//
compound: O=[Se](=O)(O)O
label: 0 (no)
//
compound: CC(C)(C)NCC(COc1ccc([N+](=O)[O-])cc1)OP(c1ccccc1)c1ccccc1 (centres undefined)
label: 0 (no)
//
compound: CC(=O)OCC1OC([Se-])C(OC(C)=O)C(OC(C)=O)C1OC(C)=O.N#CCC[PH+](CCC#N)CCC#N.[Au+] (centres undefined)
label: 0 (no)
//
compound: O=C1CCCCC1CN1CCCCC1 (centres undefined)
label: 0 (no)
//
compound: C[C@]12CC[C@H](OC(=O)Cc3ccc(N(CCCl)CCCl)cc3)CC1CC[C@@H]1C2CC[C@]2(C)NC(=O)CCC12 (some centres undefined)
label: 0 (no)
//
compound: CNC(=O)O/N=C(\CN=[N+]=[N-])C(C)(C)C
label: 0 (no)
//
compound: F[C](F)(F)[Hg][c]1ccccc1
label: 1 (yes)
//
compound: NC(c1ccccc1)P(=O)(O)O (centres undefined)
label: 0 (no)
//
compound: NCc1c[nH]c2ccccc12
label: 0 (no)
//
compound: Cn1nnnc1NC#N
label: 0 (no)
//
compound: CCc1ccccc1[N+](=O)[O-]
label: 0 (no)
//
compound: NC(CCSCCF)C(=O)O (centres undefined)
label: 0 (no)
//
compound: CC(SC(C)C(=O)N/N=C/c1ccc(N(CCCl)CCCl)cc1)C(=O)N/N=C\c1ccc(N(CCCl)CCCl)cc1 (centres undefined)
label: 0 (no)
//
compound: CCCCCCCCCCCCCCCC[As](=O)(O)CCCCCCCCCCCCCCCC
label: 0 (no)
//
compound: CCCOC(=O)C(C)(C)C(OP(OCCC)OCCC)=C(C)C
label: 0 (no)
//
compound: CC(=O)OCC1OC(S[As](C)C)C(OC(C)=O)C(OC(C)=O)C1OC(C)=O (centres undefined)
label: 0 (no)
//
compound: OC12CCC[N+]1(Cc1ccccc1)CCC2 (centres undefined)
label: 0 (no)
//
compound: O=C(Nc1ccc(Cl)cc1C(=O)c1ccccc1)c1ccc([N+](=O)[O-])cc1
label: 0 (no)
//
compound: CCOC(OCC)c1ccc(C(F)(F)F)cc1.[C-]#[O+].[C-]#[O+].[C-]#[O+].[Cr]
label: 0 (no)

----------
Parameter: growth inhibition. Scope: all listed entries.
# procedure-summary: NCI Yeast Anticancer Drug Screen. Data for the rad50 strain (AID 155);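 note: 0% = growth of vehicle-only cultures of the same strain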
# condition-info: S. cerevisiae rad50 strain growth inhibition; at 50.0 µM; stronger effect = higher value
About 79,000 compounds went through this panel and 15% of them were active in at least one assay; those are over-represented in the sample as a whole.

compound: CC(C)CN(CC(C)C)[N+](=O)[O-]
unit-of-measurement: %
growth inhibition: -6.25
--
compound: CCCC[C@@H]1CCN2C[C@@H](O)[C@@H](O)[C@@H]2[C@H]1O
unit-of-measurement: %
growth inhibition: -2.4
--
compound: Cc1ccccc1NC(N)=S
unit-of-measurement: %
growth inhibition: 27.6
--
compound: CC(C)(C)c1cc(C=C(C#N)C#N)cc(C(C)(C)C)c1O
unit-of-measurement: %
growth inhibition: 4.3
--
compound: CN(C)CCCN1CCCCC1
unit-of-measurement: %
growth inhibition: 8.7
--
compound: COc1ccccc1P(=S)(c1ccccc1)c1ccccc1
unit-of-measurement: %
growth inhibition: 31
--
compound: COc1ccc(-n2c(=S)[nH]c3ccccc3c2=O)cc1
unit-of-measurement: %
growth inhibition: -10.5
--
compound: CC(Nc1c([N+](=O)[O-])ccc(C(=O)NCCN(C)C)c1[N+](=O)[O-])C(=O)Nc1ccc(N(CCCl)CCCl)cc1 (configuration not stated)
unit-of-measurement: %
growth inhibition: -34.6
--
compound: Cc1nccc2c1[nH]c1ccccc12
unit-of-measurement: %
growth inhibition: 6.5
--
compound: C[Si](C)(C)CN(N=O)C(N)=O
unit-of-measurement: %
growth inhibition: 1.55
--
compound: CN(CCC#N)c1ccc(C=C(C#N)C#N)cc1
unit-of-measurement: %
growth inhibition: 7.25
--
compound: CC(C)c1cc2c(cc1O)C1(C)CCCC(C)(C)C1=CC2=O (configuration not stated)
unit-of-measurement: %
growth inhibition: -1.65
